This collection of values is drawn from PubChem BioAssay AID2060906.

- System: 485176-168-R4-J1-PDC complex spheroid growth;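 also: spheroids exposed to compounds for seven days before readout; luminescence viability expressed relative to DMSO vehicle wells set as 100%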
- PROCEDURE_TEXT: Anticancer human tumor 485176-168-R4-J1-PDC patient-derived pancreatic adenocarcinoma cell line growth inhibition [RAS]
- MEASUREMENT_PARAMETERS: second compound 0.000949 µM; first compound 0.003 µM; active compounds read low
Listed here: items and their measured viability, T/C.
QUANTITY_KIND: viability, T/C (%)

{"MOLECULE": "CCc1c2c(nc3ccc(O)cc13)-c1cc3c(c(=O)n1C2)COC(=O)[C@]3(O)CC + CCn1c(-c2cc(N3CCN(C)CC3)cnc2C(C)OC)c2c3cc(ccc31)-c1csc(n1)CC(NC(=O)C1CC1C)C(=O)N1CCCC(N1)C(=O)OCC(C)(C)C2", "EXPERIMENTAL_VALUE": 77.5}
{"MOLECULE": "CC1(C)CCC(Nc2ncc(C(F)(F)F)c(-c3c[nH]c4c(P(C)(C)=O)c(C#N)ccc34)n2)CN1 (centres undefined) + CCn1c(-c2cccnc2C(C)OC)c2c3cc(ccc31)N1CCOC(CC(NC(=O)C(C(C)C)N(C)C(=O)C3(F)CCN(C(=O)C#CC(C)(C)N(C)C)CC3)C(=O)N3CCCC(N3)C(=O)OCC(C)(C)C2)C1", "EXPERIMENTAL_VALUE": 93.3}
{"MOLECULE": "CCc1c2c(nc3ccc(O)cc13)-c1cc3c(c(=O)n1C2)COC(=O)[C@]3(O)CC + CCn1c(-c2cccnc2C(C)OC)c2c3cc(ccc31)N1CCOC(CC(NC(=O)C(C(C)C)N(C)C(=O)C3(F)CCN(C(=O)C#CC(C)(C)N(C)C)CC3)C(=O)N3CCCC(N3)C(=O)OCC(C)(C)C2)C1", "EXPERIMENTAL_VALUE": 84.4}
{"MOLECULE": "CC1(C)CCC(Nc2ncc(C(F)(F)F)c(-c3c[nH]c4c(P(C)(C)=O)c(C#N)ccc34)n2)CN1 (centres undefined) + CCn1c(-c2cc(N3CCN(C)CC3)cnc2C(C)OC)c2c3cc(ccc31)-c1csc(n1)CC(NC(=O)C1CC1C)C(=O)N1CCCC(N1)C(=O)OCC(C)(C)C2", "EXPERIMENTAL_VALUE": 91.1}
